molecular target: His-Tlp3 (Campylobacter jejuni); assay: biochemical; type: binding
Sequence (Q0P864 entry or part of it): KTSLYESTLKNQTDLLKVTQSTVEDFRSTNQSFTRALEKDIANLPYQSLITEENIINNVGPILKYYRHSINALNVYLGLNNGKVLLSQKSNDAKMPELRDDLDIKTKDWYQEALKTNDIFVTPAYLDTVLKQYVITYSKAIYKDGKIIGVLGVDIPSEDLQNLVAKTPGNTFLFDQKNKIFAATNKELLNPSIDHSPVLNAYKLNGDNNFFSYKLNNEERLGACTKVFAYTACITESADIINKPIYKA
measured.quantity: Kd

Query: Sample O=C(O)/C=C/C(=O)O — what was its Kd?
Reply: > 10 mM

====

test system: C. jejuni 11168-O Δtlp3; type: cell-based, Campylobacter jejuni; conditions: Δtlp3; plug with 2 mM ligand; 37°C, 4 h
Exercise: for every item that follows, state its recorded Viable counts of C. jejuni associated with ligand plug.

Query: Entry N[C@H]1C(O)O[C@H](CO)[C@@H](O)[C@@H]1O (stereo partly shown) [Glucosamine] , system C. jejuni 11168-O Δtlp3: what Viable counts of C. jejuni associated with ligand plug was measured?
Reply: 7.8 × 10^6 cfu/ml

Query: Next entry: CC[C@H](C)[C@H](N)C(=O)O [Isoleucine]
Reply: 3.6 × 10^2 cfu/ml

Query: Next entry: O=C(O)CC(O)C(=O)O (stereo not shown) [Malic Acid]
Reply: 1.13 × 10^3 cfu/ml

Query: Next entry: O=C(O)CCC(=O)O [Succinic Acid]
Reply: 2 × 10^7 cfu/ml

Query: Next entry: O=C(O)/C=C/C(=O)O [Fumaric Acid]
Reply: 9 × 10^2 cfu/ml

Query: Next entry: Cc1ncc(C[n+]2csc(CCO)c2C)c(N)n1 [Thiamine]
Reply: 9 × 10^6 cfu/ml

Query: Next entry: NCCCC[C@H](N)C(=O)O [Lysine]
Reply: 2.4 × 10^5 cfu/ml

Query: Next entry: c1ncc2nc[nH]c2n1 [Purine]
Reply: 1.08 × 10^5 cfu/ml

Query: Next entry: N=C(N)NCCC[C@H](N)C(=O)O [Arginine]
Reply: 6.8 × 10^7 cfu/ml

Query: Next entry: N[C@@H](CC(=O)O)C(=O)O [Aspartate]
Reply: 3.7 × 10^3 cfu/ml

====

test system: recombinant Tlp3 periplasmic sensory domain peptide; experiment: 96-well plate binding assay; set-up: species or system Campylobacter jejuni; key: Y: positive binding significantly above background; N: binding not significantly above background; details: non-covalent presentation

| compound | Plate assay |
| --- | --- |
| O=C(O)/C=C/C(=O)O | Y |
| N[C@@H](CC(=O)O)C(=O)O [Aspartate] | Y |
| CC[C@H](C)[C@H](N)C(=O)O | Y |
| N[C@H]1C(O)O[C@H](CO)[C@@H](O)[C@@H]1O (stereo partly shown) | Y |

====

target: UniProt Q0P864; assay: biochemical; format: binding; conditions: SPR, 25°C, 1× PBS pH 7.2; read-out: Binding Affinity (KD)
measured.quantity: pKd
The scale used: pKd is minus the common logarithm of the concentration in molar units.

Query: Sample O=C(O)CCC(=O)C(=O)O [α-ketoglutarate] — what was its pKd?
Reply: 3.53

====

test system: recombinant Tlp3 periplasmic sensory domain peptide; experiment: Amino acid and small molecule array binding assay; parameters: species or system Campylobacter jejuni; key: Y: positive binding significantly above background; N: binding not significantly above background; conditions: compounds covalently bound to an epoxide group
measured.quantity: Array binding

| compound | Array binding |
| --- | --- |
| NCCCC[C@H](N)C(=O)O [Lysine] | N |
| N=C(N)NCCC[C@H](N)C(=O)O [Arginine] | N |
| CC[C@H](C)[C@H](N)C(=O)O [Isoleucine] | Y |
| N[C@@H](CC(=O)O)C(=O)O [Aspartate] | N |

Query: Sample O=C(O)CCC(=O)C(=O)O [α-ketoglutarate] — what was its Array binding?
Reply: Y
